- system name: Kappa-type opioid receptor (Cavia porcellus)
- Sequence (P41144 whole entry): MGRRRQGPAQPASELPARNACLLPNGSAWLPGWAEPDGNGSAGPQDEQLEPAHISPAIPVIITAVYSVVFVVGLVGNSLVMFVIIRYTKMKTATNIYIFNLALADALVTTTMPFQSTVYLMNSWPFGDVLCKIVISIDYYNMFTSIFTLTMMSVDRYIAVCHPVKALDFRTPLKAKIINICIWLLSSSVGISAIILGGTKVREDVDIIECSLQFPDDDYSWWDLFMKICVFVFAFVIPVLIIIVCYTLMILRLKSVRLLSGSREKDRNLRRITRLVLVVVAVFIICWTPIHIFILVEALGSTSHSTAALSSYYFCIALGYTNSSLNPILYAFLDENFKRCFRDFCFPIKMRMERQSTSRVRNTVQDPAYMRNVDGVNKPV
Where a SMILES comes first, the peptide text is derived from it.
measure: Ki

If you can, please state the reported Ki value of NC(=O)[C@@H]1CC(F)(F)CN1C(=O)[C@H](Cc1ccccc1)NC(=O)[C@@H]1CC(F)(F)CN1C(=O)[C@@H](N)Cc1ccc(O)cc1 .
> 1000 nM

What value of measured Ki is listed for NC(=O)[C@@H]1CCCN1C(=O)[C@H](Cc1ccccc1)NC(=O)[C@H]1CC(F)(F)CN1C(=O)[C@@H](N)Cc1ccc(O)cc1 ?
> 1000 nM

What value of Ki has been recorded for this entry: NC(=O)[C@@H]1CCCN1C(=O)[C@H](Cc1ccccc1)NC(=O)[C@@H]1CCCN1C(=O)[C@@H](N)Cc1ccc(O)cc1 [MORPHICEPTIN] (H-YPFP-NH2)
> 1000 nM

***
Would you kindly share the measured Ki for NC(=O)[C@H]1CC(F)(F)CN1C(=O)[C@H](Cc1ccccc1)NC(=O)[C@@H]1CCCN1C(=O)[C@@H](N)Cc1ccc(O)cc1 ?
> 1000 nM

Give its Ki value. Item: NC(=O)[C@H]1CC(F)(F)CN1C(=O)[C@H](Cc1ccccc1)NC(=O)[C@@H]1CC(F)(F)CN1C(=O)[C@@H](N)Cc1ccc(O)cc1
386 nM
